Source: patent US20250026849A1

# Target or test system: T1, CD123 (Homo sapiens (Human), UniProt P26951 19-305, limits assumed)
# T1 construct: also called CD123-Signal
# T1 sequence: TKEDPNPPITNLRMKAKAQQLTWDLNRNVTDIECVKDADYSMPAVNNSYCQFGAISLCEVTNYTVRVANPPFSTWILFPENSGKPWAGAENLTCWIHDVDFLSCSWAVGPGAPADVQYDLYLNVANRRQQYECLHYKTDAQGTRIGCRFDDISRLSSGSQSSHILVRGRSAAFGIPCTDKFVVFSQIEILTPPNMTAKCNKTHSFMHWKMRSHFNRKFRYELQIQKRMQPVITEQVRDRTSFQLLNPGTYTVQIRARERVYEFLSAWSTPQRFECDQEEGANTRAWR
# Assay explanation: ELISA, format not described
# Set-up: unit not given here
Hi, to clarify the labels: true (1) covers ELISA_avg from 5 upward, false (0) covers anything below 5.

Example entries begin here.
[
  {
    "Binder": "D domain SEQ ID NO: 744 (designed binder) MGSWEEFEDRLWAIEDRLWALGGSEAELAAFEKEIAAFESELQAYKGKGNPEVEILRYDAAYIREILQAYRHN",
    "Class label": "false (0)"
  },
  {
    "Binder": "D domain SEQ ID NO: 702 (designed binder) MGSWNEFWERLDAIEWRLFALGGSEAELAFFELDIAWFEEELQWYKGKGNPEVEALIFEAHAITLELDAYRHN",
    "Class label": "false (0)"
  },
  {
    "Binder": "D domain SEQ ID NO: 735 (designed binder) MGSWEEFYDRLGAIFARLHALGGSEAELAAFEKEIAAFESELQAYKGKGNPEVEDLRWYAADIRMILQAYRHN",
    "Class label": "false (0)"
  }
]

Request: Check if ELISA_avg >= 5 (inclusive). Item: D domain SEQ ID NO: 758 (designed binder) MGSWYEFEHRLDAIYDRLWALGGSEAELAAFEKEIAAFESELQAYKGKGNPEVEWLREEAAWIRLWLQAYRHN
Response: true (1)
